pIC50: −log10 of the molar value.
Compiled record: pIC50 values for Lysine-specific demethylase 5B (Homo sapiens) across several sources.
Outcome Measure: pIC50

* CN(CCn1cnc(-c2cc(C(=O)NC#N)ccn2)c1)CC1CC1 | ≥ 7.00
* O=C(O)c1ccnc(-n2ccc(CCc3ccccc3)n2)c1 | 6.00 to 7.00
* CN1CCOC(CCn2nc(Nc3cnccc3C(=O)O)c3cc(F)ccc32)C1 (stereo not drawn) | > 7.00
* O=C(O)c1ccncc1Nc1nn(C2CCOC2)c2ccc(F)cc12 (stereo not drawn) | > 7.00
* O=C(O)c1ccnc(-n2nccc2OCc2ccc(F)c(Cl)c2)c1 | > 7.00
* O=C(O)c1ccncc1NC[C@@H]1CCCc2ccccc21 | 6.00 to 7.00
* CCNC(=O)C1CCCN(Cc2cc(C(=O)O)ccn2)C1 (stereo not drawn) | 5.60 to 6.60
* Cn1ccc(COc2nc(O)c3ccncc3n2)n1 | 5.00 to 6.00
* CS(=O)(=O)c1ccc(-c2ccnn2-c2cc(C(=O)O)ccn2)cc1O | 6.00 to 7.00
* Oc1nc(Oc2cnn(Cc3ccccc3Cl)c2)nc2cnccc12 | ≥ 7.00
* Cc1cc(F)ccc1COc1ccnn1-c1cc(C(=O)O)ccn1 | > 7.00
* O=C(O)c1ccnc(CNCC(=O)N2CCCCC2)n1 | < 5.60
* COc1ccc(CNc2ccc3nccn3c2C(=O)O)cc1 | < 6.00
* CC(C)C(c1ccccc1)n1cnc(-c2cc(C(=O)O)ccn2)c1 (stereo not drawn) | ≥ 7.00
* Cc1cccc(Cl)c1CNc1ccc2nccn2c1C(=O)O | < 6.00
* Cn1ncc2ccc(COc3ccnn3-c3cc(C(=O)O)ccn3)cc21 | > 7.00
* Oc1nc(OCc2cccc(-c3ccccc3)c2)nc2cnccc12 | 5.00 to 6.00
* CCc1cc(F)ccc1COc1ccnn1-c1cc(C(=O)O)ccn1 | > 7.00
* O=C(O)c1ccnc(CN2CCC[C@@H]2CO)c1 | > 6.60
* O=C(O)c1ccnc(-c2cn(CCN3Cc4ccc(F)cc4C3)cn2)c1 | ≥ 7.00
* C=CCN(CC=C)C(=O)[C@H](CC(=O)NCCCN(C)C)NCc1cc(C(=O)O)ccn1 | > 6.60
* O=C(O)c1ccnc(-n2nccc2-c2ccc(Cl)c(O)c2)c1 | 6.00 to 7.00
* O=C(O)c1ccnc(-n2nccc2OCc2cccc(Br)c2)c1 | > 7.00
* C=CCN(CC=C)C(=O)[C@H](CCCCNC(=O)OC(C)(C)C)NCc1cc(C(=O)O)ccn1 | 5.60 to 6.60
* O=C(O)c1c(NCc2ccc(-c3cccs3)cc2)ccc2nccn12 | < 6.00
* O=C(O)c1ccnc(-c2cn(CCN(Cc3ccc(Cl)c(Cl)c3)C3CC3)cn2)c1 | ≥ 7.00
* C[C@H](c1ccccc1)N1CCC[C@@H](CNCc2cc(C(=O)O)ccn2)C1=O | > 6.60
* Cc1ccc2c(c1)c(Nc1cnccc1C(=O)O)nn2CCC(F)(F)F | > 7.00
* Cn1cnc(-c2nccc3c(O)nc(OCc4cccc(F)c4)nc23)c1 | ≥ 7.00
* O=C(C1CC1)N1CCC(n2cc(Oc3nc(O)c4ccncc4n3)cn2)CC1 | ≥ 7.00
* CCc1cnn(-c2cc(C(=O)O)ccn2)c1OCc1ccc(F)cc1 | > 7.00
* Oc1nc(Oc2ccc(Cl)cc2)nc2cnccc12 | ≥ 7.00
* c1cc(-c2nn[nH]n2)cc(-c2cn(CCN3CCCC3)cn2)n1 | ≥ 7.00
* COc1ccc(Oc2nc(O)c3ccncc3n2)cc1F | ≥ 7.00
* O=C(O)c1ccnc(-c2cn(CCN3Cc4ccc(Cl)cc4C3)cn2)c1 | ≥ 7.00
* CCCn1nc(Nc2cnccc2C(=O)O)c2cccc(F)c21 | > 7.00
* O=C(O)c1ccnc(-n2nccc2OCc2cccc(F)c2)c1 | > 7.00
* COc1cc(-c2ccnn2-c2cc(C(=O)O)ccn2)ccc1Cl | 6.00 to 7.00
* FC(F)(F)c1ccccc1CCn1cnc(-c2cc(-c3nn[nH]n3)ccn2)c1 | ≥ 7.00

* * *

pIC50: −log10 of the molar value.
Please find below pIC50 measurements for Lysine-specific demethylase 5B (Homo sapiens, UniProt Q9UGL1), combined from several publications.
Outcome Measure: pIC50

* Cn1cnc(-c2cc(C(=O)O)ccn2)c1 | ≥ 7.00
* O=C(O)c1ccnc(-c2cn(CCc3ccc(F)cc3)cn2)c1 | ≥ 7.00
* O=C(O)c1ccncc1NCc1ccccc1C1CC1 | ≥ 7.00
* O=C(O)c1ccnc(CN2CCn3ccnc3C2)c1 | 5.60 to 6.60
* FC(F)(F)c1cccc(Cn2cnc(-c3cc(-c4nn[nH]n4)ccn3)c2)c1Cl | ≥ 7.00
* Oc1nc(Oc2ccccc2F)nc2cnccc12 | 6.00 to 7.00
* CN(C)CC1CCN(Cc2cc(C(=O)O)ccn2)Cc2nccn21 (stereo not drawn) | 5.60 to 6.60
* CC(=O)N1CCC(n2cc(Oc3nc(O)c4ccncc4n3)cn2)CC1 | ≥ 7.00
* Oc1nc(OCC2COc3ccccc32)nc2cnccc12 (stereo not drawn) | 5.00 to 6.00
* O=C(O)c1ccncc1Nc1nn(CCc2ccccc2)c2ccc(F)cc12 | > 7.00
* Cc1cnn(-c2cc(C(=O)O)ccn2)c1OCc1ccc(F)cc1 | > 7.00
* Cn1cnc(-c2cc(C(=O)O)ccn2)c1-c1ccc(OC(F)(F)F)cc1 | 6.00 to 7.00
* CCC(C)Oc1cc(Cl)ccc1COc1ccnn1-c1cc(C(=O)O)ccn1 (stereo not drawn) | 6.00 to 7.00
* COc1ccc(CNc2ccc3nccn3c2C(=O)O)cc1Cl | 6.00 to 6.30
* Clc1ccccc1CCn1cnc(-c2cc(-c3nn[nH]n3)ccn2)c1 | 6.00 to 7.00
* Cc1cc(CNc2ccc3nccn3c2C(=O)O)ccc1F | < 6.00
* CCc1ccccc1CNCCn1cnc(-c2cc(C(=O)O)ccn2)c1 | ≥ 7.00
* O=C(c1cc(F)cc(Oc2nc(O)c3ccncc3n2)c1)N1CCOCC1 | ≥ 7.00
* CCCn1nc(Nc2cnccc2C(=O)O)c2ccccc21 | > 7.00
* O=C(O)c1ccnc(-n2nc(Cc3ccccc3)cc2O)c1 | 6.00 to 7.00
* Oc1nc(OCCc2ccccc2)nc2cnccc12 | ≥ 7.00
* O=C(O)c1ccncc1Nc1nn(CC(O)CO)c2ccc(F)cc12 (stereo not drawn) | > 7.00
* CCOc1c(F)cc(Oc2nc(O)c3ccncc3n2)cc1F | ≥ 7.00
* Oc1nc(Oc2cnn([C@H]3CCN(c4ccccc4F)C3)c2)nc2cnccc12 | ≥ 7.00
* O=S(=O)(c1ccccc1)N1CC[C@H](n2cc(Oc3nc(O)c4ccncc4n3)cn2)C1 | ≥ 7.00
* O=C(O)c1c(NCc2ccc3sccc3c2)ccc2nccn12 | < 6.00
* Oc1nc(OCc2ccc(F)cc2)nc2cnccc12 | 5.00 to 6.00
* O=C(C1CCNCC1)N1CC[C@H](n2cc(Oc3nc(O)c4ccncc4n3)cn2)C1 | ≥ 7.00
* Oc1nc(Oc2cnn(Cc3ccc(F)cc3)c2)nc2cnccc12 | ≥ 7.00
* O=C(O)c1c(NCc2cc(C(F)(F)F)cc(C(F)(F)F)c2)ccc2nccn12 | < 6.00
* O=C(O)c1ccnc(CN2CCCC[C@@H]2CC(=O)N2CCCCC2)c1 | < 5.60
* O=C(O)c1ccncc1Nc1nn(CCN2CCCC2)c2ccc(Cl)cc12 | > 7.00
* CCNC(=O)C1CN(Cc2cc(C(=O)O)ccn2)C1 | 5.60 to 6.60
* Cn1cnc(-c2nccc3c(O)nc(OCC4CC4)nc23)c1 | ≥ 7.00
* O=C(O)c1ccnc(CNCc2nccn2C/C=C/c2ccccc2)c1 | > 6.60
* CC(COc1nc(O)c2ccncc2n1)c1ccccc1 (stereo not drawn) | 6.00 to 7.00
* O=C(O)c1ccnc(-n2nccc2OCc2ccc(Cl)cc2OCc2ccccc2)c1 | > 7.00
* Oc1nc(Oc2cnn([C@H]3CCN(c4ccc(Cl)cc4)C3)c2)nc2cnccc12 | ≥ 7.00
* O=C(O)c1cc(-c2cn(Cc3ccc(Cl)cc3)cn2)cc2nccn12 | ≥ 6.30

* * *

Here is a set of compounds with reported IC50 for Lysine-specific demethylase 5B (Homo sapiens, UniProt Q9UGL1), compiled from the literature.
Outcome Measure: IC50

• COCCOc1ccc(Oc2nc(O)c3ccnc(-c4cn(C)cn4)c3n2)cc1 = ≤ 100 nM
• COc1cc(-c2ccnn2-c2cc(C(=O)O)ccn2)ccc1C = 100 to 1000 nM
• O=C(O)c1ccnc(CN2CCCCC2CO)c1 (stereo not shown) = > 2500 nM
• COc1ccc(CNc2cnccc2C(=O)O)cc1 = ≤ 100 nM
• O=C(O)c1ccnc(CNC2CCCc3cccnc32)c1 (stereo not shown) = > 2500 nM
• O=C(O)c1c(NCc2ccccc2Cl)ccc2nccn12 = 500 to 1000 nM
• Cn1cnc(-c2cc(C(=O)O)ccn2)c1-c1ccc(Cl)cc1Cl = ≤ 100 nM
• O=C(O)c1c(NCc2cccc(C(F)(F)F)c2F)ccc2nccn12 = > 1000 nM
• CCN1CCC(CNCc2cc(C(=O)O)ccn2)C1=O (stereo not shown) = < 250 nM
• Cn1cnc(-c2cc(C(=O)O)ccn2)c1-c1ccc(C2(CO)CC2)cc1 = ≤ 100 nM
